# Test system: 945468-187-T-J3-PDC spheroids with HUVEC/MSC, viability
# Run description: Anticancer human tumor 945468-187-T-J3-PDC patient-derived rectal carcinoma cell line growth inhibition [PI3K]
# Condition: second compound 0.1 µM; first compound 3 µM; stronger effect = lower value
Quantity kind: viability, T/C (%)

[[record]]
compound = "Cn1cnc2c(F)c(Nc3ccc(Br)cc3Cl)c(C(=O)NOCCO)cc21 + CC(Nc1ncnc2nc[nH]c12)c1cc2cccc(Cl)c2c(=O)n1-c1ccccc1"
measured_on = "945468-187-T-J3-PDC spheroids with HUVEC/MSC, viability"
quantity_kind = "viability, T/C"
data_value = 95.6

[[record]]
compound = "Cn1cnc2c(F)c(Nc3ccc(Br)cc3Cl)c(C(=O)NOCCO)cc21 + COc1c(OCCCN2CCOCC2)ccc2c3n(c(=NC(=O)c4cnc(N)nc4)nc12)CCN3"
measured_on = "945468-187-T-J3-PDC spheroids with HUVEC/MSC, viability"
quantity_kind = "viability, T/C"
data_value = 3.84

[[record]]
compound = "Cn1cnc2c(F)c(Nc3ccc(Br)cc3Cl)c(C(=O)NOCCO)cc21 + CC(Nc1ccc2c(c1)OCCn1cc(N3C(=O)OCC3C(F)F)nc1-2)C(N)=O"
measured_on = "945468-187-T-J3-PDC spheroids with HUVEC/MSC, viability"
quantity_kind = "viability, T/C"
data_value = 33

[[record]]
compound = "Cn1cnc2c(F)c(Nc3ccc(Br)cc3Cl)c(C(=O)NOCCO)cc21 + Cc1nc(NC(=O)N2CCCC2C(N)=O)sc1-c1ccnc(C(C)(C)C(F)(F)F)c1"
measured_on = "945468-187-T-J3-PDC spheroids with HUVEC/MSC, viability"
quantity_kind = "viability, T/C"
data_value = 90.4


---

Catalogue of viability, T/C values
# Tested on: 945468-187-T-J3-PDC spheroids with HUVEC/MSC, viability
# Run description: Anticancer human tumor 945468-187-T-J3-PDC cell line growth inhibition [PI3K];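 note: spheroids exposed to agents for 7 days before viability read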;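 for viability, T/C: 100% = DMSO vehicle control viability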
# Condition: second compound 3.16 µM; first compound 0.0316 µM; stronger effect = lower value
# Excerpt: Combinatorial screen of targeted agents with the PI3K inhibitors inavolisib, alpelisib, duvelisib, and copanlisib in multi-cell type tumor spheroids A high-throughput screen of multi-cell type tumor spheroids was designed to identify active combinations of targeted small molecules and PI3K pathway inhibitors. […] Compounds. […] If the clinical Cmax for an agent had not been determined, the highest concentration tested was 10 microM. […]
Quantity kind: viability, T/C (%)

[[record]]
compound = "Cn1ncc(Cl)c1-c1cc(C(=O)NC(CN)Cc2cccc(F)c2)sc1Cl (stereo not drawn) + CC(Nc1ncnc2nc[nH]c12)c1cc2cccc(Cl)c2c(=O)n1-c1ccccc1"
quantity_unit = "%"
data_value = 107

[[record]]
compound = "CCCS(=O)(=O)Nc1ccc(F)c(C(=O)c2c[nH]c3ncc(-c4ccc(Cl)cc4)cc23)c1F + CC(Nc1ncnc2nc[nH]c12)c1cc2cccc(Cl)c2c(=O)n1-c1ccccc1"
quantity_unit = "%"
data_value = 92.6

[[record]]
compound = "CC(C)n1nc(-c2ccc3oc(N)nc3c2)c2c(N)ncnc21 + CC(Nc1ncnc2nc[nH]c12)c1cc2cccc(Cl)c2c(=O)n1-c1ccccc1"
quantity_unit = "%"
data_value = 103


---

# Tested on: 945468-187-T-J3-PDC spheroids with HUVEC/MSC, viability
# Run description: Anticancer human tumor 945468-187-T-J3-PDC cell line growth inhibition [PI3K];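 note: spheroids exposed to agents for 7 days before viability read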;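 for viability, T/C: 100% = DMSO vehicle control viability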
# Condition: second compound 1 µM; first compound 1 µM; stronger effect = lower value
Please note: viability, T/C exactly at 70% is NO. Only values below 70% get YES.

[[record]]
molecule = "Cn1ncc(Cl)c1-c1cc(C(=O)NC(CN)Cc2cccc(F)c2)sc1Cl (stereo unspecified) + CC(Nc1ncnc2nc[nH]c12)c1cc2cccc(Cl)c2c(=O)n1-c1ccccc1"
class_name = "YES"

[[record]]
molecule = "CCN1CCN(Cc2ccc(Nc3ncc(F)c(-c4cc(F)c5nc(C)n(C(C)C)c5c4)n3)nc2)CC1 + COc1c(OCCCN2CCOCC2)ccc2c3n(c(=NC(=O)c4cnc(N)nc4)nc12)CCN3"
class_name = "YES"

[[record]]
molecule = "CCN1CCN(Cc2ccc(Nc3ncc(F)c(-c4cc(F)c5nc(C)n(C(C)C)c5c4)n3)nc2)CC1 + CC(Nc1ccc2c(c1)OCCn1cc(N3C(=O)OCC3C(F)F)nc1-2)C(N)=O"
class_name = "YES"

[[record]]
molecule = "C#Cc1c(F)ccc2cc(O)cc(-c3ncc4c(N5CC6CCC(C5)N6)nc(OCC56CCCN5CC(F)C6)nc4c3F)c12 (stereo unspecified) + CC(Nc1ncnc2nc[nH]c12)c1cc2cccc(Cl)c2c(=O)n1-c1ccccc1"
class_name = "NO"

[[record]]
molecule = "C[C@@H](NC(=O)c1ncnc(N)c1Cl)c1ncc(C(=O)Nc2cc(C(F)(F)F)c(Cl)cn2)s1 + CC(Nc1ncnc2nc[nH]c12)c1cc2cccc(Cl)c2c(=O)n1-c1ccccc1"
class_name = "NO"

[[record]]
molecule = "Cn1ncc(Cl)c1-c1cc(C(=O)NC(CN)Cc2cccc(F)c2)sc1Cl (stereo unspecified) + CC(Nc1ccc2c(c1)OCCn1cc(N3C(=O)OCC3C(F)F)nc1-2)C(N)=O"
class_name = "YES"

[[record]]
molecule = "CC1(C)CCC(CN2CCN(c3ccc(C(=O)NS(=O)(=O)c4ccc(NCC5CCOCC5)c([N+](=O)[O-])c4)c(Oc4cnc5[nH]ccc5c4)c3)CC2)=C(c2ccc(Cl)cc2)C1 + CC(Nc1ncnc2nc[nH]c12)c1cc2cccc(Cl)c2c(=O)n1-c1ccccc1"
class_name = "NO"

[[record]]
molecule = "Cn1nccc1Nc1nccc(-c2ccn(C(CO)c3ccc(Cl)c(F)c3)c(=O)c2)n1 (stereo unspecified) + COc1c(OCCCN2CCOCC2)ccc2c3n(c(=NC(=O)c4cnc(N)nc4)nc12)CCN3"
class_name = "YES"

[[record]]
molecule = "C=CC(=O)N1CCN(c2nc(=O)n(-c3c(C)ccnc3C(C)C)c3nc(-c4c(O)cccc4F)c(F)cc23)C(C)C1 (stereo unspecified) + COc1c(OCCCN2CCOCC2)ccc2c3n(c(=NC(=O)c4cnc(N)nc4)nc12)CCN3"
class_name = "YES"

[[record]]
molecule = "CC(C)NCC(C(=O)N1CCN(c2ncnc3c2C(C)CC3O)CC1)c1ccc(Cl)cc1 (stereo unspecified) + Cc1nc(NC(=O)N2CCCC2C(N)=O)sc1-c1ccnc(C(C)(C)C(F)(F)F)c1"
class_name = "NO"

[[record]]
molecule = "CC(C)NCC(C(=O)N1CCN(c2ncnc3c2C(C)CC3O)CC1)c1ccc(Cl)cc1 (stereo unspecified) + CC(Nc1ccc2c(c1)OCCn1cc(N3C(=O)OCC3C(F)F)nc1-2)C(N)=O"
class_name = "YES"

[[record]]
molecule = "Cn1nccc1Nc1nccc(-c2ccn(C(CO)c3ccc(Cl)c(F)c3)c(=O)c2)n1 (stereo unspecified) + Cc1nc(NC(=O)N2CCCC2C(N)=O)sc1-c1ccnc(C(C)(C)C(F)(F)F)c1"
class_name = "NO"

[[record]]
molecule = "C[C@@H](NC(=O)c1ncnc(N)c1Cl)c1ncc(C(=O)Nc2cc(C(F)(F)F)c(Cl)cn2)s1 + Cc1nc(NC(=O)N2CCCC2C(N)=O)sc1-c1ccnc(C(C)(C)C(F)(F)F)c1"
class_name = "NO"

[[record]]
molecule = "CCCS(=O)(=O)Nc1ccc(F)c(C(=O)c2c[nH]c3ncc(-c4ccc(Cl)cc4)cc23)c1F + COc1c(OCCCN2CCOCC2)ccc2c3n(c(=NC(=O)c4cnc(N)nc4)nc12)CCN3"
class_name = "YES"

[[record]]
molecule = "CCCS(=O)(=O)Nc1ccc(F)c(C(=O)c2c[nH]c3ncc(-c4ccc(Cl)cc4)cc23)c1F + Cc1nc(NC(=O)N2CCCC2C(N)=O)sc1-c1ccnc(C(C)(C)C(F)(F)F)c1"
class_name = "NO"

[[record]]
molecule = "CC1(C)CCC(Nc2ncc(C(F)(F)F)c(-c3c[nH]c4c(P(C)(C)=O)c(C#N)ccc34)n2)CN1 (stereo unspecified) + CC(Nc1ccc2c(c1)OCCn1cc(N3C(=O)OCC3C(F)F)nc1-2)C(N)=O"
class_name = "YES"

[[record]]
molecule = "CC1(C)CCC(CN2CCN(c3ccc(C(=O)NS(=O)(=O)c4ccc(NCC5CCOCC5)c([N+](=O)[O-])c4)c(Oc4cnc5[nH]ccc5c4)c3)CC2)=C(c2ccc(Cl)cc2)C1 + Cc1nc(NC(=O)N2CCCC2C(N)=O)sc1-c1ccnc(C(C)(C)C(F)(F)F)c1"
class_name = "NO"


---

# Test system: 945468-187-T-J3-PDC spheroids with HUVEC/MSC, viability
# Run description: Anticancer human tumor 945468-187-T-J3-PDC cell line growth inhibition [PI3K];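 note: spheroids exposed to agents for 7 days before viability read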
# Condition: curve of first compound; second compound 0.316 µM
pIC50: −log10 of the molar value.
Here the recorded pIC50 is given for each entry.
Quantity kind: pIC50

[[record]]
compound = "C#Cc1c(F)ccc2cc(O)cc(-c3ncc4c(N5CC6CCC(C5)N6)nc(OCC56CCCN5CC(F)C6)nc4c3F)c12 (stereo unspecified) + CC(Nc1ncnc2nc[nH]c12)c1cc2cccc(Cl)c2c(=O)n1-c1ccccc1"
data_value = "< 5.00"

[[record]]
compound = "CC(C)n1nc(-c2ccc3oc(N)nc3c2)c2c(N)ncnc21 + CC(Nc1ncnc2nc[nH]c12)c1cc2cccc(Cl)c2c(=O)n1-c1ccccc1"
data_value = "< 7.00"

[[record]]
compound = "CC(C)n1nc(-c2ccc3oc(N)nc3c2)c2c(N)ncnc21 + Cc1nc(NC(=O)N2CCCC2C(N)=O)sc1-c1ccnc(C(C)(C)C(F)(F)F)c1"
data_value = "< 7.00"

[[record]]
compound = "CC(C)NCC(C(=O)N1CCN(c2ncnc3c2C(C)CC3O)CC1)c1ccc(Cl)cc1 (stereo unspecified) + CC(Nc1ncnc2nc[nH]c12)c1cc2cccc(Cl)c2c(=O)n1-c1ccccc1"
data_value = 5.18

[[record]]
compound = "Cn1nccc1Nc1nccc(-c2ccn(C(CO)c3ccc(Cl)c(F)c3)c(=O)c2)n1 (stereo unspecified) + CC(Nc1ncnc2nc[nH]c12)c1cc2cccc(Cl)c2c(=O)n1-c1ccccc1"
data_value = "< 5.00"

[[record]]
compound = "CC1(C)CCC(Nc2ncc(C(F)(F)F)c(-c3c[nH]c4c(P(C)(C)=O)c(C#N)ccc34)n2)CN1 (stereo unspecified) + Cc1nc(NC(=O)N2CCCC2C(N)=O)sc1-c1ccnc(C(C)(C)C(F)(F)F)c1"
data_value = 5.30

